SYSTEM NAME: Nitric oxide synthase (neuronal, human recombinant) nNOS (Homo sapiens)
Construct: purchased Axxora LLC ALX-201-068
Sequence (P29475 whole entry): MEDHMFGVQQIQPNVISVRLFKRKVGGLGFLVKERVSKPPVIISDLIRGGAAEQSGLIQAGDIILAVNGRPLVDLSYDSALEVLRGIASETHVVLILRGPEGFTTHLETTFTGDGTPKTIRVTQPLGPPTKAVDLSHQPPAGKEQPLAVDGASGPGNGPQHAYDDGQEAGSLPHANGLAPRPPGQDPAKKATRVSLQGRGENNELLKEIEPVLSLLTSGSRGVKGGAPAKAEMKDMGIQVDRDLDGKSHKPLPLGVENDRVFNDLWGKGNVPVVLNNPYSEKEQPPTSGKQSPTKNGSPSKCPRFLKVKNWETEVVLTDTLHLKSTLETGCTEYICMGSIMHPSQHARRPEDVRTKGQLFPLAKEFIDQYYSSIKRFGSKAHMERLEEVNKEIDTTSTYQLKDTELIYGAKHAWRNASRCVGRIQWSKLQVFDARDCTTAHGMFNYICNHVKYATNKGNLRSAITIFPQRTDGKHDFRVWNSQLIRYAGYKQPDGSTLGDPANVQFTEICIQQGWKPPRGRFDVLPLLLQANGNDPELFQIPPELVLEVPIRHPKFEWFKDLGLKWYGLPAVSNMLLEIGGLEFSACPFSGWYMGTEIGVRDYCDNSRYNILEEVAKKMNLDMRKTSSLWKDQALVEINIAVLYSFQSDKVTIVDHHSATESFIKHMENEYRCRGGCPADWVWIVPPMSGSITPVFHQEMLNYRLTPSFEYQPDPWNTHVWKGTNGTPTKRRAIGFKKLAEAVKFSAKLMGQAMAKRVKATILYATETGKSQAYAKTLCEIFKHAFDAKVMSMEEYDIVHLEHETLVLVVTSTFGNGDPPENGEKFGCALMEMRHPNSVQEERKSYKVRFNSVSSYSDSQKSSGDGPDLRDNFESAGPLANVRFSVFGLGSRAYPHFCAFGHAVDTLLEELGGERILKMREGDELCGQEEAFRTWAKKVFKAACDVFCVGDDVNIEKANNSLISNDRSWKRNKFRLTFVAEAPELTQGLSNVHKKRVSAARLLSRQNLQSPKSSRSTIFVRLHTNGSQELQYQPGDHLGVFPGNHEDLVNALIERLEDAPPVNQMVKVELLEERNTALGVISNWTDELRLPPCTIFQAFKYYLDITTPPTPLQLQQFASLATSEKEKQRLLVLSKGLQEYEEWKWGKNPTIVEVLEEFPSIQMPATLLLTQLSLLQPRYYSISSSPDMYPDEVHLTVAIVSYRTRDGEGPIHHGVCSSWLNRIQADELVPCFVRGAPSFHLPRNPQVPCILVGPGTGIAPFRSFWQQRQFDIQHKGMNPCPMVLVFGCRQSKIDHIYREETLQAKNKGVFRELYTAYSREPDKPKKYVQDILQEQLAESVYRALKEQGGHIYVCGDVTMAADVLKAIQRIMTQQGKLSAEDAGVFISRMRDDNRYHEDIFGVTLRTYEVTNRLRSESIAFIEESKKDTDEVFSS
MEASUREMENT NOTES: nNOS (human) enzyme assay, [3H]-L-arginine to L-citrulline conversion
Type: biochemical
CONDITIONS: Table 2; compounds tested as hydrochloride salts
OBSERVABLE: IC50 (nM)
Quick reminder: number only, in nM, skip the unit.

Sample records with IC50:
CN(C)C1CC=C(c2c[nH]c3ccc(NC(=N)c4cccs4)cc23)CC1 (single isomer, unassigned) [Compound 2b] ... 839
CCNC1CC=C(c2c[nH]c3ccc(NC(=N)c4cccs4)cc23)CC1 (racemic) [(±)-6] ... 1420

Kindly consider the entry below.
Problem: Please supply the value of reported IC50 for the item CN(C)C1CC=C(c2c[nH]c3ccc(NC(=N)c4cccs4)cc23)CC1 (single isomer, unassigned) [Compound 2a]
Solution: 865

These entries and their values trace back to patent US20090131503A1.
